pKi values by entry
target.under.test: 5-hydroxytryptamine receptor 1B (Homo sapiens)
Sequence (P28222 whole entry): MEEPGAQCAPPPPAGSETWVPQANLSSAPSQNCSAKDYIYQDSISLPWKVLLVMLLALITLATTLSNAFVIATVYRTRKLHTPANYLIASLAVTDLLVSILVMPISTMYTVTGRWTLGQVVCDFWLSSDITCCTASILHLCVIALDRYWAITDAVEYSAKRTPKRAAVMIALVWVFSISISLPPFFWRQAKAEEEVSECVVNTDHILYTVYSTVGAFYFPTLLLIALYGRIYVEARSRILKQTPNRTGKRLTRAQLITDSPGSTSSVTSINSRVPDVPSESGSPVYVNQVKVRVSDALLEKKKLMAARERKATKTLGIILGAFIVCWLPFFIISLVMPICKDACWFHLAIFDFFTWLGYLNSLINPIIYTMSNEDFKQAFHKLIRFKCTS
protocol: Displacement of [3H]5-CT from recombinant human 5HT1B receptor stably expressed in HEK cells measured after 90 mins by microbeta scintillation counting method
Quick note: pKi means taking -log10 of the concentration in moles per liter.

Answered examples (3):
Cc1cc(Oc2nccc3occc23)ccc1-c1c(C)ncc2nccn12	5.03
FC(F)(F)c1cc(Oc2nccc3occc23)ccc1-c1cccc2nccn12	5.03
FC(F)(F)c1cc(Oc2nccc3ccsc23)ccc1-c1cccc2nccn12	5.00

The reported pKi of the compound Cc1ncc2nccn2c1-c1ccc(Oc2nccc3occc23)cc1C(F)(F)F was 5.06

* * *

target.under.test: D(1A) dopamine receptor (Homo sapiens)
Sequence (P21728 whole entry): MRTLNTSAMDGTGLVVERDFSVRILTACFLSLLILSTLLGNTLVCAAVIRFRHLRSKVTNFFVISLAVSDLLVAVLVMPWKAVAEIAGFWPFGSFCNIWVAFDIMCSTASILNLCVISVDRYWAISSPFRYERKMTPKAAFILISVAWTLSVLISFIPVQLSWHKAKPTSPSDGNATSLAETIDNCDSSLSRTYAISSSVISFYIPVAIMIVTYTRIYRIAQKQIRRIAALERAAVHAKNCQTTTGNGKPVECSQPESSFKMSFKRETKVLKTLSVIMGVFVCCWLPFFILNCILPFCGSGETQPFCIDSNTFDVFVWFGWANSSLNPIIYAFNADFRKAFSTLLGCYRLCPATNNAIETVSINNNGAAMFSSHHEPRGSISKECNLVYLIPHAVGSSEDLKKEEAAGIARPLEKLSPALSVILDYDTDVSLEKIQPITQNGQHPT
protocol: Agonist activity at recombinant human D1 receptor expressed in HEK29T cells assessed as induction of stimulatory G-protein-mediated cAMP accumulation measured after 15 mins by Glosensor-based FLIPR assay relative to dopamine
Format: functional, cell-based
Emax values by entry
Write down the numeric answer in % and omit the unit.

Answered examples (4):
Cc1cc(Oc2nccc3ccccc23)ccc1-c1c(C)ncc2nccn12	82
Cc1cc(Oc2nccn3cccc23)ccc1-c1c(C)ncc2nccn12	83
Cc1cc(N(c2nccc3occc23)C2CCCC2)ccc1-c1c(C)ncc2nccn12	68
Cc1cc(Oc2nccc3occc23)ccc1-c1cccc2nccn12	95

The reported Emax of the compound Cc1cc(Oc2nccc3occ(C4CC4)c23)ccc1-c1c(C)ncc2nccn12 was 67

The reported Emax of the compound Cc1cc(Oc2nccc3occc23)ccc1-c1c(C)cnnc1C was 61

The reported Emax of the compound Cc1cc(N(c2nccc3occc23)C(C)C)ccc1-c1c(C)ncc2nccn12 was 67

The reported Emax of the compound Cc1cc(Oc2cccc3occc23)ccc1-c1c(C)ncc2nccn12 was 69

The reported Emax of the compound Cc1ncc2nccn2c1-c1ccc(Oc2nccc3occc23)cc1C(F)(F)F was 94

The reported Emax of the compound FC(F)(F)c1cc(Oc2nccn3cccc23)ccc1-c1cccc2nccn12 was 78

The reported Emax of the compound FC(F)(F)c1cc(Oc2nccc3occ(C4CC4)c23)ccc1-c1cccc2nccn12 was 83

The reported Emax of the compound Cc1cc(Oc2cc(N3CCCCC3)ccn2)ccc1-c1c(C)ncc2nccn12 was 26

The reported Emax of the compound Cc1cc(Nc2nccc3occc23)ccc1-c1c(C)ncc2nccn12 was 98

The reported Emax of the compound CCN(c1ccc(-c2c(C)ncc3nccn23)c(C)c1)c1nccc2occc12 was 80

The reported Emax of the compound Cc1cc(N(CC2CC2)c2nccc3occc23)ccc1-c1c(C)ncc2nccn12 was 78

The reported Emax of the compound Cc1ncc2nccn2c1-c1cc(F)c(Oc2nccc3occc23)c(F)c1 was 66

All values here come from ChEMBL document CHEMBL4390674.
